B1: tRNA (parent)
chain: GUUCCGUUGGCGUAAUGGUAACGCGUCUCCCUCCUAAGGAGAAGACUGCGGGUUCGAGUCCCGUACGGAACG

Variants of: B1
Protocol text: yeast fitness relative to wild type (ratio to wild type); higher = fitter; tRNA-Arg(CCU), competitive growth, 37 C, YPD
Fewer inactive variants are shown than the library holds.
Give YES when the value for yeast fitness is at least 0.6. Give NO when it is less.

# Mutation string, Category label
records = [
    ("A15C U47A", "YES"),
    ("C27U C30U A42C C55U A70G", "NO"),
    ("G6C A15U G23C C31G A37G G56C", "NO"),
    ("G6A C11G A21G C27G C29U U35G A70C", "NO"),
    ("A21U C22A G50C", "NO"),
    ("U3A U7A U32C G41A", "NO"),
    ("U53A G56C", "NO"),
    ("U13G C27A C30A G63C", "NO"),
    ("G38A G58C A70U", "YES"),
    ("C49U A65G G67A A69U", "NO"),
    ("G50A U64C", "YES"),
    ("A42G C46A", "YES"),
    ("G18A C29A C49U", "NO"),
    ("U8A U13A A20C A21U A42U", "NO"),
    ("C5G A36C A42G C55U C62G A69U", "NO"),
    ("C11G A15G U26G C66U", "NO"),
    ("C11U A14C C30G A40G C49A G68A", "NO"),
    ("G6A U28G C34U", "NO"),
    ("U3A G18A C49G C55G C60A C62A G68A A69U", "YES"),
    ("U3C A20C A45C C49U", "NO"),
]

FYI, the data here is from the RNAGym collection of RNA variant scans (doi:10.1126/science.aae0568).
